Source of measurements: PubChem BioAssay (NCI)

- Tested on: SN12C renal
- protocol: NCI tumour cell line growth inhibition, 48 h
As shown below, each of these compounds has a reported TGI value.

Example entries begin here.
- compound: "CCOC(=O)C(C(=O)OCC)=C1SC(=Nc2ccccc2)C(=Nc2ccccc2)N1c1ccccc1"
  TGI: "> 100 µM"
- compound: "O=c1ccc2ccc(OP(=O)(O)O)cc2o1"
  TGI: "> 100 µM"
- compound: "CSC1=N/C(=C\\c2ccc(Cl)cc2)C(=O)N1CN1CCCCC1"
  TGI: "> 100 µM"
- compound: "C[C@H](C1CC(C)(O)C(C)(O)C(O)O1)[C@H]1CC[C@H]2[C@@H]3[C@@H]4O[C@@H]4[C@@]4(O)CC=CC(=O)[C@]4(C)[C@H]3CC[C@]12C (stereo partly drawn)"
  TGI: "> 50 µM"
- compound: "CC1=C(C#N)C(=C(C#N)C#N)OC1(C)Cc1ccccc1 (stereo not drawn)"
  TGI: "> 100 µM"

Look up TGI for this compound: Cc1c2ccccc2c(C2C3C(=O)N(c4ccc(Br)cc4)C(=O)C3ON2C(C(N)=O)c2ccccc2)c2ccccc12 (stereo not drawn)
53.5 µM

Try this compound next: C=C(c1ccc(OC)c(/C=C/C(=O)c2ccc3c(c2)OCO3)c1)c1cc(OC)c(OC)c(OC)c1
> 100 µM

Repeat for the following compound: COc1cc2c(cc1OC(C)C)[C@H](c1ccc(Cl)cc1)N(c1ccc(N(C)CC3CCC(N4CCN(C)C(=O)C4)CC3)cc1)C(=O)C2 (stereo partly drawn)
9.15 µM

###

- Test system: NCI-H226 lung
- protocol: NCI tumour cell line growth inhibition, 48 h
quantity_name: TGI

For orientation, consider the following solved cases.
- compound: "C[C@@H]1C[C@H]2[C@@H]3CCC4=CC(=O)C=C[C@]4(C)[C@@]3(F)[C@@H](O)C[C@]2(C)[C@@]1(O)C(=O)CO"
  value_observed: "> 100 µM"
- compound: "N#CC12C(=O)NC(=O)C1(C#N)C1C=CC2CC1 (stereo not given)"
  value_observed: "> 100 µM"
- compound: "CC1=NN(c2cccc(Cl)c2)C2(SCC(=O)N2c2nc3ccccc3s2)C1=CC=Cc1ccccc1 (stereo not given)"
  value_observed: "> 100 µM"
- compound: "CC(=O)OC[C@H]1CN(OC(C)=O)C[C@@H](n2cc(C)c(=O)[nH]c2=O)O1"
  value_observed: "> 100 µM"
- compound: "Cc1cc(S(=O)(=O)Nc2n[nH]c(-c3ccc(Cl)cc3)n2)c(SSc2cc(Cl)c(C)cc2S(=O)(=O)Nc2n[nH]c(-c3ccc(Cl)cc3)n2)cc1Cl"
  value_observed: "73.3 µM"

Bench note: what TGI did O=C1NC(=C(Cl)Cl)/C(=N/S(=O)(=O)N2CCCCC2)N1 show?
14.9 µM

Then this compound: NC(=O)C1CCCN1C(=O)C(Cc1cnc[nH]1)NC(=O)C1CCCC1 (stereo not given)
> 100 µM

Now consider CC(=O)Oc1ccccc1 and answer again.
> 100 µM

And then CCOCCOCCOCc1nc(C#N)c(N)o1 , what is it?
> 100 µM

What do you have for CC(C)[N+]([O-])(CCCNc1c2ccccc2nc2cccc([N+](=O)[O-])c12)C(C)C ?
2.56 µM

###

- Test system: OVCAR-4 ovarian
- protocol: NCI tumour cell line growth inhibition, 48 h
quantity_name: TGI

- molecule: "COc1ccc(CNc2cnc3cc(N)ccc3n2)cc1"
  value_observed: "> 100 µM"
- molecule: "CCOC1OC(COC(=O)C(C)(C)C)C(O)CC1n1cc(C)c(=O)[nH]c1=O (stereo not drawn)"
  value_observed: "> 100 µM"
- molecule: "NCCSSCc1ccccc1CSSCCN"
  value_observed: "> 100 µM"
- molecule: "COc1cc2c(c(OC)c1OC)-c1ccc(OC)c(=O)cc1C(NC(=O)COc1ccccc1)CC2 (stereo not drawn)"
  value_observed: "> 84 µM"
- molecule: "CSc1nc(-c2ccc(Cl)cc2)c(C#N)c(=O)n1C1OC(COC(C)=O)C(OC(C)=O)C(OC(C)=O)C1OC(C)=O (stereo not drawn)"
  value_observed: "> 100 µM"
- molecule: "C=CCNC(=O)NCCCCC(NC(C)=O)C(=O)NCc1ccccc1 (stereo not drawn)"
  value_observed: "> 100 µM"
- molecule: "O=C1[C@H]2ON(c3ccccc3)C(c3ccc([N+](=O)[O-])cc3)[C@H]2C(=O)N1c1ccc(Cc2ccc(N3C(=O)[C@@H]4ON(c5ccccc5)C(c5ccc([N+](=O)[O-])cc5)[C@@H]4C3=O)cc2)cc1 (stereo partly drawn)"
  value_observed: "> 100 µM"

# input for lookup
If you can, please state the reported TGI value of N#Cc1ccc(C(O)C(F)(F)c2nc3ccccc3o2)cc1 (stereo not drawn) .
> 100 µM
